- System: mice
- protocol.text: Phenylephrine-induced tactile hypersensitivity in mice
- Assay type: in vivo, mouse
- run.conditions: Phenylephrine (100 ng/kg I.P.); cumulative score 0 to 16; mean ± SEM
Provide the reported tactile (mechanical) hypersensitivity score of each item.
Give the figure by itself; no unit, no explanation.

Could you please provide reported tactile (mechanical) hypersensitivity score for CC12CC3CC(C)(C1)CC(N)(C3)C2.Cl [Memantine] ? Thanks! 11.0

Could you please provide reported tactile (mechanical) hypersensitivity score for NCC1(CC(=O)O)CCCCC1 ? Thanks! 13.0

Could you please provide reported tactile (mechanical) hypersensitivity score for COc1ccccc1N1CCN(CCCNc2c(C)c(=O)n(C)c(=O)n2C)CC1 ? Thanks! 5.0

Could you please provide reported tactile (mechanical) hypersensitivity score for CCN(Cc1cc(Br)ccc1OCc1ccccc1)c1ccc(C(=O)O)cn1 ? Thanks! 9.8

---

- Tested on: mice
- protocol.text: NMDA-induced tactile hypersensitivity in mice
- Format: in vivo, mouse
- run.conditions: NMDA (100 ng IT); cumulative score 0 to 16; mean ± SEM
metric.name: tactile (mechanical) hypersensitivity score
Give the figure by itself; no unit, no explanation.

Could you please provide reported tactile (mechanical) hypersensitivity score for CC12CC3CC(C)(C1)CC(N)(C3)C2.Cl [Memantine] ? Thanks! 4.2

Could you please provide reported tactile (mechanical) hypersensitivity score for CCN(Cc1cc(Br)ccc1OCc1ccccc1)c1ccc(C(=O)O)cn1 ? Thanks! 11.4

Could you please provide reported tactile (mechanical) hypersensitivity score for COc1ccccc1N1CCN(CCCNc2c(C)c(=O)n(C)c(=O)n2C)CC1 ? Thanks! 13.3

Could you please provide reported tactile (mechanical) hypersensitivity score for NCC1(CC(=O)O)CCCCC1 ? Thanks! 3.7

---

- system.under.test: UniProt P08913
- Sequence (P08913 whole entry): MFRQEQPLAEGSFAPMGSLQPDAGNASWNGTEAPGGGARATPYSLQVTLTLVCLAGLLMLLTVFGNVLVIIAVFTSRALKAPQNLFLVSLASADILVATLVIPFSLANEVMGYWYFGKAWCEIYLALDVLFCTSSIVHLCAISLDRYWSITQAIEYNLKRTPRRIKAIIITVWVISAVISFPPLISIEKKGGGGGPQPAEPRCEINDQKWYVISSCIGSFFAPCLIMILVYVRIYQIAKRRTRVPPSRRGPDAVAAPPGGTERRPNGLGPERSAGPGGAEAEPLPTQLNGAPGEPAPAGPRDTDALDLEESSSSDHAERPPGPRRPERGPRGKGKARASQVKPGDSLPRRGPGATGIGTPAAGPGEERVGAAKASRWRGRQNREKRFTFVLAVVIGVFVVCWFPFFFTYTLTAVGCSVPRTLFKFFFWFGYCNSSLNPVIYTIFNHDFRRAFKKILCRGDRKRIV
- run.conditions: percent efficacy relative to brimonidine
Provide the reported human α2A % E of each item.
Quick note: give the figure in %, leave out the unit.

Could you please provide reported human α2A % E for Clc1cccc(Cl)c1N=C1NCCN1 [Clonidine] ? Thanks! 94

Could you please provide reported human α2A % E for Clc1ccc2nsnc2c1NC1=NCCN1 [Tizanidine] ? Thanks! 93

Could you please provide reported human α2A % E for Brc1c(NC2=NCCN2)ccc2nccnc12 [Brimonidine] ? Thanks! 91

Could you please provide reported human α2A % E for Cc1cccc([C@H](C)c2cnc[nH]2)c1C [Dexmedetomidine] ? Thanks! 93

---

- system.under.test: hamster α-1B adrenergic receptor (Mesocricetus auratus)
- Sequence (P18841 1-515): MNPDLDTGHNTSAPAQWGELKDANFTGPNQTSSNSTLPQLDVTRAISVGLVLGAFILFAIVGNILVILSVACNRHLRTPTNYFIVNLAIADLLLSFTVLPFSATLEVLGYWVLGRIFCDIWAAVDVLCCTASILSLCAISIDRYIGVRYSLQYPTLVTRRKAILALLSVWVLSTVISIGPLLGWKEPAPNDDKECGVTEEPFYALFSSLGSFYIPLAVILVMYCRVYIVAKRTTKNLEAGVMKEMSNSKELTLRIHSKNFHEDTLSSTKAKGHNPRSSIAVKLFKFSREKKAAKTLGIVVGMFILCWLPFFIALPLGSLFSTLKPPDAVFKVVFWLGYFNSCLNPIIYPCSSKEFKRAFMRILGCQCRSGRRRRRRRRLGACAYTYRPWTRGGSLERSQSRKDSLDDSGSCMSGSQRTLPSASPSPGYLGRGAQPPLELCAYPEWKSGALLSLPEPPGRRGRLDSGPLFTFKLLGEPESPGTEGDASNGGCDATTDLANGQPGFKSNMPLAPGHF
- Format: cell-based
- run.conditions: result in words
metric.name: agonist activity at the α-1B receptor

Clc1ccc2nsnc2c1NC1=NCCN1 ... partial agonists
Cc1cccc([C@H](C)c2cnc[nH]2)c1C ... partial agonists
Clc1cccc(Cl)c1N=C1NCCN1 ... partial agonists
